Overview of reported GCGR EC50 human across a group of binders:
TARGET_ENTITY: human Glucagon receptor (GCGR) (human, UniProt P47871 26-477)
Sequence (P47871 26-477): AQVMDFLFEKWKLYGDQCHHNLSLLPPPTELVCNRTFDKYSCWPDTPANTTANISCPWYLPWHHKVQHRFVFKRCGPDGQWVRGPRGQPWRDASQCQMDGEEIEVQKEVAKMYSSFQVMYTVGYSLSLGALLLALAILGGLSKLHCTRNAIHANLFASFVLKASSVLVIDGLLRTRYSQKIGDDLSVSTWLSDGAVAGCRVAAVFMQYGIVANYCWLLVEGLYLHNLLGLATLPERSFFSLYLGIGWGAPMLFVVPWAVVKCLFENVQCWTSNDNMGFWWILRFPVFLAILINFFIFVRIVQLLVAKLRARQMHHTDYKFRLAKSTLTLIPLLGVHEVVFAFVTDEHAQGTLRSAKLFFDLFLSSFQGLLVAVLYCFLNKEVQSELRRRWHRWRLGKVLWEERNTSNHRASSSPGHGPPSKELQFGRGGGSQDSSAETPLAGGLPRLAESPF
PROCEDURE_SUMMARY: cell-based or functional assay
Numbered stars: 1 amine (or outer) side, 2 acyl side, 3 side chain; on linkers, the order of the positions; unused ones are H or OH. Square brackets hold non-standard residues; d marks the D form. Side chains are listed from the residue outwards. Ends that are not written are not given here. * marks the point of attachment. Phe(4-CH2NH2) = NCc1ccc(C[C@H](N)C(=O)O)cc1; C18 diacid = O=C(O)CCCCCCCCCCCCCCCCC(=O)*; αMeW = C[C@](N)(Cc1c[nH]c2ccccc12)C(=O)O; C16 diacid = O=C(O)CCCCCCCCCCCCCCC(=O)*; γGlu = O=C(O)[C@H](CCC(=O)[*:2])N[*:1]; Met(O2) = CS(=O)(=O)CC[C@H](N)C(=O)O; αMeD = C[C@](N)(CC(=O)O)C(=O)O; Nle = CCCC[C@H](N)C(=O)O; AEEA = NCCOCCOCC(=O)O; Aib = CC(C)(N)C(=O)O; C16 = lipid (C16)
MEASURED_QUANTITY: GCGR EC50 human

>  <BINDER>
H[Aib]QGTFTSDYSKYLD[Aib]RAAQFVQK([AEEA-AEEA-γGlu-C16 diacid])WLLATK-{γGlu-NH2} [TP666]

>  <MEASURED_RESULT>
> 19.8 nM

$$$$
>  <BINDER>
H[Aib]QGTFTSD[Phe(4-CH2NH2)]([AEEA-AEEA-γGlu-C16 diacid])SKYLD[Aib]RAAQDFVQWL[Met(O2)]ATK-{γGlu-NH2} [TP658]

>  <MEASURED_RESULT>
3.2 nM

$$$$
>  <BINDER>
H[Aib]QGTFTSDYSKYLDARAA[Nle]([1,2,3‑triazole‑5-AEEA-AEEA-γGlu-C18 diacid])DFVQWL[Met(O2)]DT-NH2 [TP712]

>  <MEASURED_RESULT>
0.25 nM

$$$$
>  <BINDER>
H[Aib]QGTFTSDYSKYLDARAAQDFVQWL[Met(O2)][Phe(4-CH2NH2)]([AEEA-AEEA-γGlu-C20‑OH])T-NH2 [TP605]

>  <MEASURED_RESULT>
3.75 nM

$$$$
>  <BINDER>
HXQGTFTSDXSKYLDARAAQDFVQWLLDT (D-Ser (s) at 2; Nle(1,2,3-triazole-4-γE-C16) at 10; C-terminal amide) [TP830]

>  <MEASURED_RESULT>
0.14 nM

$$$$
>  <BINDER>
H[Aib]QGTFTSDYSKYLDARAAK([AEEA-γGlu-C20‑OH])DFVQWL[Met(O2)][αMeD]T-NH2 [TP629]

>  <MEASURED_RESULT>
3.17 nM

$$$$
>  <BINDER>
HXQGTFTSDYSKYLDARAAXXFVQWLXDT (Aib (U) at 2; K(PEG2PEG2γEC20-OH) at 20; αMD at 21; L-methionine sulphone (2) at 27; C-terminal amide) [TP594]

>  <MEASURED_RESULT>
4.95 nM

$$$$
>  <BINDER>
H[Aib]QGTFTSDK([γGlu-γGlu-C16])SKYLDARAAK([AEEA-AEEA-γGlu-C16 diacid])DFVQWL[Met(O2)]DT-NH2 [TP606]

>  <MEASURED_RESULT>
1.01 nM

$$$$
>  <BINDER>
H[Aib]QGTFTSDK([γGlu-γGlu-C16])SKYLDARAAQDFVK([AEEA-AEEA-γGlu-C16 diacid])WL[Met(O2)][αMeD]T-NH2 [TP607]

>  <MEASURED_RESULT>
0.57 nM

$$$$
>  <BINDER>
HXQGTFTSDXSKYLDARAAQDFVQWLLDT (D-Ser (s) at 2; Nle(1,2,3-triazole-4-C15) at 10; C-terminal amide) [TP829]

>  <MEASURED_RESULT>
1.06 nM

$$$$
>  <BINDER>
H[Aib]QGTFTSD[Phe(4-CH2NH2)]([AEEA-AEEA-γGlu-C20‑OH])SKYLD[Aib]RAAQDFVQWLLATK-{γGlu-NH2} [TP582]

>  <MEASURED_RESULT>
4.95 nM

$$$$
>  <BINDER>
H[Aib]QGTFTSDYSKYLDERAA[Phe(4-CH2NH2)]([AEEA-AEEA-γGlu-C20‑OH])DFVQWLLKT-NH2 [TP586]

>  <MEASURED_RESULT>
4.95 nM

$$$$
>  <BINDER>
H[Aib]QGTFTSDK([γGlu-γGlu-C16])SKYLDARAAK([AEEA-AEEA-γGlu-C18 diacid])DFVQWL[Met(O2)]DT-NH2 [TP601]

>  <MEASURED_RESULT>
1.8 nM

$$$$
>  <BINDER>
H[Aib]QGTFTSDYSKYLDERAAK([AEEA-AEEA-γGlu-C20‑OH])DFVQWL[Met(O2)][αMeD]T-NH2 [TP589]

>  <MEASURED_RESULT>
19.8 nM

$$$$
>  <BINDER>
H[Aib]QGTFTSD[Phe(4-CH2NH2)]([AEEA-AEEA-γGlu-C20‑OH])SKYLDARAAQDFVQWL[Met(O2)]DT-NH2 [TP580]

>  <MEASURED_RESULT>
1.09 nM

$$$$
>  <BINDER>
H[Aib]QGTFTSDYSKYLD[Aib]RAAQ[Phe(4-CH2NH2)]([AEEA-AEEA-γGlu-C16 diacid])FVQWLLATK-{γGlu-NH2} [TP665]

>  <MEASURED_RESULT>
0.79 nM

$$$$
>  <BINDER>
H[Aib]QGTFTSDYSKYLDARAAKDFVQ[αMeW]L[Met(O2)][αMeD]T-NH2 (not fully specified (residue 20); printed as HUQGTFTSDYSKYLDARAAK(PEG2PEG2γEC18-OH)DFVQαMWL2αMDT-NH2) [TP632]

>  <MEASURED_RESULT>
5.9 nM

$$$$
>  <BINDER>
HXQGTFTSDYSKYLDARAAXXFVQWLXXT (Aib (U) at 2; K(PEG2PEG2γEC18-OH) at 20; αMD at 21; L-methionine sulphone (2) at 27; αMD at 28; C-terminal amide) [TP611]

>  <MEASURED_RESULT>
0.2 nM

$$$$
>  <BINDER>
HXQGTFTSDXSKYLDARAAQDFVXWLXDT (D-Ser (s) at 2; pAF(γEγEC16) at 10; K(PEG2PEG2γEC16-OH) at 24; L-methionine sulphone (2) at 27; C-terminal amide) [TP693]

>  <MEASURED_RESULT>
1.1 nM

$$$$
